# Experimental Setup: Ebola virus entry assay, green fluorescence channel
Results with a measured potency or affinity are listed apart.
Kindly return True if reported efficacy is no lower than -10%; return False if it is lower.

INSERT INTO results (compound, group) VALUES
  ('CC(=O)OCC(COC(C)=O)OC(C)=O', 'True'),
  ('CNC[C@H](O)[C@@H](O)[C@H](O)[C@H](O)CO', 'False'),
  ('CC(=O)Nc1ccc(OCC(O)CNC(C)C)cc1 (stereo not given)', 'False'),
  ('CCCCOC(=O)CC(CC(=O)OCCCC)(OC(C)=O)C(=O)OCCCC', 'True'),
  ('CCCCOC(=O)c1ccc(N)cc1', 'True'),
  ('Cc1cccc(C)c1NC(=O)CN(CC(=O)O)CC(=O)O', 'False'),
  ('CCN[C@H]1CN(CCCOC)S(=O)(=O)c2sc(S(N)(=O)=O)cc21', 'True'),
  ('Cc1cc(C)c(NC(=O)CN(CC(=O)O)CC(=O)O)c(C)c1Br', 'True'),
  ('COc1cc2c(cc1OC)CN(C(=O)[C@H](C)N[C@@H](CCc1ccccc1)C(=O)O)[C@H](C(=O)O)C2', 'False'),
  ('O=C(CCCl)NCCc1ccccc1', 'False'),
  ('Clc1cccc(C(c2ccc3nc[nH]c3c2)n2ccnc2)c1 (stereo not given)', 'False'),
  ('O=C(NCC(O)CO)c1c(I)c(C(=O)NCC(O)CO)c(I)c(N(CCO)C(=O)CO)c1I (stereo not given)', 'True'),
  ('NS(=O)(=O)c1cc2c(cc1Cl)NC(CC1CCCC1)NS2(=O)=O (stereo not given)', 'True'),
  ('CCc1oc2ccccc2c1C(=O)c1cc(I)c(O)c(I)c1', 'False'),
  ('CN1C(=O)COc2c(C(=O)NC3CN4CCC3CC4)cc(Cl)cc21 (stereo not given)', 'False'),
  ('CCC(C)C(C)(COC(N)=O)COC(N)=O (stereo not given)', 'True'),
  ('CCc1cc2c(s1)-n1c(C)nnc1CN=C2c1ccccc1Cl', 'True'),
  ('Nc1ccc([N+](=O)[O-])c(C(F)(F)F)c1', 'False'),
  ('Cc1ccc(C(C)C)c(O)c1', 'False'),
  ('Cc1c[nH]c2ccccc12', 'False'),
  ('CC(=O)NC(=O)c1ccccc1O', 'False'),
  ('CCOC(=O)c1ccc(O)cc1', 'False'),
  ('Clc1cccc(SC2CCNCC2)n1', 'False'),
  ('O=C(O)CCc1nc2ccccc2[nH]1', 'False'),
  ('CC1CN(c2cc3c(cc2F)c(=O)c(C(=O)O)cn3-c2ccc(F)cc2F)CCN1 (stereo not given)', 'True'),
  ('Cc1c(C(=O)NCCO)[n+](=O)c2ccccc2n1[O-]', 'False'),
  ('CCOP(=S)(OCC)Oc1ccc2c(C)c(Cl)c(=O)oc2c1', 'True'),
  ('O=c1cc(O)c(Cl)c[nH]1', 'False'),
  ('CN1[C@@H]2CC(OC(=O)[C@H](CO)c3ccccc3)C[C@H]1[C@@H]1O[C@@H]12 (stereo not given in full)', 'False'),
  ('CC12CCC(CC1)C(C)(C)O2', 'True'),
  ('CC(CCc1ccc2c(c1)OCO2)NN (stereo not given)', 'True'),
  ('O=C(N/N=C/c1ccc([N+](=O)[O-])o1)c1ccc(O)cc1', 'True'),
  ('CC(C)[N+](C)(C)CC(O)COc1cccc2ccccc12 (stereo not given)', 'False'),
  ('C[N+]1(C)[C@@H]2CC(OC(=O)[C@H](CO)c3ccccc3)C[C@H]1[C@@H]1O[C@@H]12 (stereo not given in full)', 'True'),
  ('CS(=O)(=O)c1ccc([C@@H](O)[C@@H](CO)NC(=O)C(Cl)Cl)cc1', 'False'),
  ('CCCC(O)C(CC)CO (stereo not given)', 'True'),
  ('CC1(COc2ccc(CC3SC(=O)NC3=O)cc2)CCCCC1 (stereo not given)', 'False'),
  ('COc1ccc2cc1Oc1cc3c(cc1OC)CC[N+](C)(C)[C@H]3Cc1ccc(cc1)Oc1c(OC)c(OC)cc3c1[C@@H](C2)[N+](C)(C)CC3', 'False'),
  ('NCCS(=O)(=O)O', 'True'),
  ('COc1ccc(-c2ccc3cc(C(=O)O)ccc3c2)cc1C12CC3CC(CC(C3)C1)C2', 'True'),
  ('O=C(O)[C@@H](O)[C@H](O)[C@H](O)[C@@H](O)C(=O)O', 'False'),
  ('Nc1nc(N)c(-c2ccccc2)s1', 'True'),
  ('O=[N+]([O-])c1ccc(/C=N\O)o1', 'True'),
  ('CN1C(C)(C)CCCC1(C)C', 'True'),
  ('O=C(O)CNC(=O)c1ccccc1', 'False'),
  ('COc1ccc(C(=O)CC(=O)c2ccc(C(C)(C)C)cc2)cc1', 'False'),
  ('CC[N+]1(CC)CCC(OC(=O)C(O)(c2ccccc2)c2ccccc2)C1 (stereo not given)', 'False'),
  ('COC(=O)c1cc(Cl)ccc1NS(=O)(=O)C(F)(F)F', 'True'),
  ('COC(=O)/C=C\C(=O)OC', 'True'),
  ('CC(CN(C)C)C(C)(O)Cc1ccc(Cl)cc1 (stereo not given)', 'True');
